test-target: T1, N-Terminal 6His-tagged Bfl-1 protein from Bfl-1 (M1-K151) (UniProt Q16548 1-151)
T1 construct: Bfl-1 (Bfl-1/A1), residues M1-K151; also called His-Bfl-1; source: E. coli, purified (Ni-NTA resin, size-exclusion chromatography); not shown: 6His, N-terminal, kept
T1 sequence (looked up): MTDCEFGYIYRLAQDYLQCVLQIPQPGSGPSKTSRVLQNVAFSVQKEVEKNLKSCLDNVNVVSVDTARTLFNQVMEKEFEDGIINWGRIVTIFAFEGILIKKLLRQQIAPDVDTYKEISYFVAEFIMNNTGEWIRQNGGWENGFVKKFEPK
test: AlphaScreen or HTRF; TR-FRET: His-tagged protein with Eu-labeled anti-His antibody and HyLite Fluor 647-labeled peptide; 384-well plates, 24 °C, 120-180 min; how the peptide Kd was determined is not told
condition-label: both partners purified
Where no end group is shown, it is not given here.
reported-property: Kd (nM)
Dear colleague, please return just the value in nM, with no unit written.

Prompt: May I ask what Kd has been recorded for C(HiLyte Fluor 647 C2 maleimide)WIAQELRRIGDEFN (added N-terminal cysteine that carries the dye; Bim BH3 stretch; also called Hylite Bim peptide) [HyLite Fluor 647-labeled Bim peptide C (Hilyte647 C2 Maleimide)-WIAQELRRIGDEFN] ?
Completion: 10
